# Test protocol: Drug excretion in F344/DuCrlCrlj rat urine/bile treated with [14C]rivoglitazone at 1 mg/kg, po administered via gavage measured during 0 to 48 hrs by radio-HPLC analysis
# Assay type: ADME, organism-based
# Set-up: dose 1 mg/kg, dosed compound name [14C]Rivoglitazone, route oral
# Measurement parameters: in vivo
Measured parameter: Compound recovery

CSC(Cc1ccc(OCc2nc3ccc(O)cc3n2C)cc1)C(N)=O (centres undefined) :: metabolite_not_detected
COc1ccc2nc(COc3ccc(CC(SC)C(=O)O)cc3)n(C)c2c1 (centres undefined) :: metabolite_not_detected
Cn1c(COc2ccc(CC3SC(=O)NC3=O)cc2)nc2ccc(O)cc21 (centres undefined) :: metabolite_not_detected
COc1ccc2nc(COc3ccc(CC(C(N)=O)S(C)(=O)=O)cc3)n(C)c2c1 (centres undefined) :: 2%
